Molecular target: human GCG receptor (human, UniProt P47871 26-477)
Sequence (P47871 26-477): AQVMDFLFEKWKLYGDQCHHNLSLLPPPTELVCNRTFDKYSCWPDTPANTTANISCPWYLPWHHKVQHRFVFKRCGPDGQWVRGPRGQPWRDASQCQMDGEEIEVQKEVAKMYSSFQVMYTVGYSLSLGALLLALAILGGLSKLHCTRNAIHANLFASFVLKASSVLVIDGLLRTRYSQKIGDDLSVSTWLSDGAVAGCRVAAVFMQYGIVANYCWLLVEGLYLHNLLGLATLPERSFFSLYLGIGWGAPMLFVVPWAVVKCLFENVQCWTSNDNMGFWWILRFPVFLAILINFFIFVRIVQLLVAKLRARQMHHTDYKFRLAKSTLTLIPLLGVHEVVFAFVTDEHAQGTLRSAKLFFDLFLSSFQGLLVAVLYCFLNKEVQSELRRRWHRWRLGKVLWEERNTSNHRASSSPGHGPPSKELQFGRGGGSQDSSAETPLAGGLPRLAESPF
Assay: cell-based or functional assay
Positions of bridges follow the written chain, without caps; N, C: chain ends. Non-standard residues stand in square brackets, D forms with d. No end group written: not given here. Aib = CC(C)(N)C(=O)O
// reported In vitro activity relative to native peptide (%), vs. Glucagon (cAMP EC50) for each item listed
Record the value in %, omitting the unit from your answer.

BINDER	REPORTED MEASUREMENT
Y[Aib]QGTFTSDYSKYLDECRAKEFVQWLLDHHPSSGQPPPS (bridge 16-20) [trigonal agonist of SEQ ID NO: 21]	267

Field: next binder
INPUT: State the recorded In vitro activity relative to native peptide (%), vs. Glucagon (cAMP EC50) for this entry: Y[Aib]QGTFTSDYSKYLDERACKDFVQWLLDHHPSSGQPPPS (bridge 16-20) [trigonal agonist of SEQ ID NO: 71]
OUTPUT: 12.7
